Tested on: recombinant wt SARS-CoV-2-mCherry (rWA1)
Assay: microbe, parasite or virus in culture
Type: cell-based
Settings: Severe acute respiratory syndrome coronavirus 2, read-out: IC50 48 hpi
reported property: pIC50
Value format note: pIC50 is -log10 of concentration (mol/L); just state the number.

What value of pIC50 has been recorded for this entry: CC(C)(C)[C@H](NC(=O)C(F)(F)F)C(=O)N1C[C@H]2[C@@H]([C@H]1C(=O)N[C@H](C#N)C[C@@H]1CCNC1=O)C2(C)C
8.06

* * *

System: wild-type VSV-G-3CL^pro-L
Test: microbe, parasite or virus in culture
Format: cell-based
Conditions: Vesicular stomatitis virus, BHK-21, 24 h, read-out: half maximal inhibitor concentration (IC50) of virus replication
reported property: IC50

Fill blank: measured IC50 of the compound CC(C)(C)[C@H](NC(=O)C(F)(F)F)C(=O)N1C[C@H]2[C@@H]([C@H]1C(=O)N[C@H](C#N)C[C@@H]1CCNC1=O)C2(C)C is ____.
~185 nM
